- system-name: T1, JCV VP1 mutant S269F (John Cunningham virus (JCV), UniProt P03089 1-354)
- T1 construct: also called VP1 S269F; 269m VP1
- experiment: ELISA, plates coated with pseudovirus, purified antibody
endpoint-label: EC50 (µg/mL)
Please respond with the number in µg/mL and leave the unit unwritten.

**Query** Any idea what its EC50 is? The binder is 1H10 (antibody, V domains shown) VH: EVQLLESGGGLVQPGGSLRLSCAASGFTLSTYAMSWVRQAPGKGLEWVSAISGTGLSTYYADSLKGRFTISRDISKNTLYLQMSSLKAEDTAVYYCAKGLELFYFYYGMDVWGQGTTVTVSS VL: EIVLTQSPGTLSLSPGERATLSCRASQSVSSTYLAWYQQKPGQAPRLLIYGTSSRATGIPDRFSGSGSGTDFTLTISRLEPEDLAVYYCQQYGRSLIFGQGTRLEIK
**Result** 0.0185

Now consider the entry below.
**Query** GET /values?readout=EC50&item= 3D2 (antibody, V domains shown) VH: QVQLQQWGAGLLKPSETLSLTCAVFGGSFSSYYWSWIRHPPGKGLEWIGDINHSGSTNYNPSLKSRVTLSVDTSKNQFSLKVTSVTAADTAVYYCARWGIAADYGMDVWGQGTTVTVSS VL: EIVLTQSPGTLSLSPGERATLSCRASQSVSSSYLAWYQQKPGQAPRLLIYGASSRATGIPDRFSDSGSGTDFTLTISRLEPEDFALYYCQQYGTSPWTFGQGTKVEIK
**Result** 0.121
